# SUBJECT_OF_TEST: HIV Env of isolate R3265.c06 (clade AE) (HIV)
# TEST_NAME: cell-based or functional assay
METRIC_NAME: IC80 (µg/ml) with constrains (µg/mL)
Express your answer in µg/mL, writing the number without its unit.

Reported IC80 (µg/ml) with constrains for ePGDM13 (antibody, V domains shown) VH: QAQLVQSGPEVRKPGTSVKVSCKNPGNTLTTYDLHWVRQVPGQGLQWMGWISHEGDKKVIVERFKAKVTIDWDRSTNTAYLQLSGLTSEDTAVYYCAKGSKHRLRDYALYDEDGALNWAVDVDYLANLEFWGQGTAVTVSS VL: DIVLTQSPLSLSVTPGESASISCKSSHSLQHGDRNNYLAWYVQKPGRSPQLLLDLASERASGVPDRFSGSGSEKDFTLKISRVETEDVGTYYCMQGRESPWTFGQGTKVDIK : what is it?
0.104

Cited source: patent US20230134571A1
